Biological target: human 5-hydroxytryptamine-2C (h5-HT2C) receptor (Homo sapiens, UniProt P28335)
Construct: expressed in transfected cells; host or cells: CHO (Chinese Hamster Ovary) cells; membranes
Sequence (P28335 33-458): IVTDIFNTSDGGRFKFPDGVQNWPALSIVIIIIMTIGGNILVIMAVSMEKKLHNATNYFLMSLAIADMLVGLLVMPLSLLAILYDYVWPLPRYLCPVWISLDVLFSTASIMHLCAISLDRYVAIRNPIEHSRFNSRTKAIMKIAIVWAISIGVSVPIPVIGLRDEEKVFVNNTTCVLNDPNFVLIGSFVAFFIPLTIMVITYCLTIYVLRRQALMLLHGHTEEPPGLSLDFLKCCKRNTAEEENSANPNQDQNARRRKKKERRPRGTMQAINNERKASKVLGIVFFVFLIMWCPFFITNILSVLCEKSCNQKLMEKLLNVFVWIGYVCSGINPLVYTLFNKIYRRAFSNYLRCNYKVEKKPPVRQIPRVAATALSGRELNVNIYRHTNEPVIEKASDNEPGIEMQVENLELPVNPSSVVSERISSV
Test: [125I]DOI binding to membranes of CHO cells expressing the human 5-HT2C receptor
Conditions: [125I]DOI radioligand, CHO cell membranes, room temperature 60 min; read-out: 5-HT2C Affinity Ki
recorded-metric: Ki (nM)
Numbers only, in nM.

COc1cc2c(c(-c3c(C)cccc3C)c1)OC(CN)C2 (racemic) : 0.6
COc1cc2c(c(-c3ccc(F)c(Cl)c3)c1)OC(CN)C2 (racemic) : 61
NCC1Cc2cc(C(F)(F)F)cc(-c3cccc(Cl)c3Cl)c2O1 (racemic) : 88
NCC1Cc2cc(C(F)(F)F)cc(-c3ccsc3)c2O1 (racemic) : 28

Can you give me Ki for all of these, one by one?
1. CNCC1Cc2cc(F)cc(-c3cc(Cl)ccc3OC)c2O1 (racemic)
2. CC(C)c1ccccc1-c1cccc2c1OC(CN)C2 (single isomer, unassigned; (-)) [Example 63]

[17, 52]

Can you give me Ki for all of these, one by one?
1. COc1ccc(Cl)cc1-c1cc(Cl)cc2c1OC(CN)C2 (racemic)
2. NCC1Cc2cc(-c3ccccc3F)cc(F)c2O1 (racemic)
3. CNCC1Cc2cc(OC)cc(-c3ccc(F)c(Cl)c3)c2O1 (racemic)

[28, 194, 78]

Can you give me Ki for all of these, one by one?
1. NCC1Cc2cccc(Nc3cc(Cl)cc(Cl)c3)c2O1 (racemic)
2. NCCC1Cc2ccc(Cl)c(-c3ccccc3Cl)c2O1 (racemic)
3. CNCC1Cc2ccc(Cl)c(-c3ccccc3Cl)c2O1 (racemic)
4. CNCC1Cc2cc(F)cc(-c3cc(OC)ccc3C)c2O1 (racemic)
5. NCC1Cc2cccc(-c3ccc(F)c(Cl)c3)c2O1 (racemic)
6. N#Cc1cc2c(c(-c3ccccc3Cl)c1)OC(CN)C2 (racemic)
7. NCC1Cc2cccc(-c3ccccc3)c2O1 (single isomer, unassigned; (-)) [Example 38]

1. 363
2. 0.3
3. 0.4
4. 4.1
5. 37
6. 15
7. 56

Can you give me Ki for all of these, one by one?
1. COc1cc2c(c(-c3ccccc3OC)c1)OC(CCN)C2 (racemic)
2. COc1cccc(-c2cccc3c2OC(CN)C3)c1OC (single isomer, unassigned; (-)) [Example 156]

1: 41; 2: 4.7

The origin of these recorded values is patent US7435837B2.
